system: Mycobacterium tuberculosis; assay: Antibacterial activity against drug-resistant Mycobacterium tuberculosis isolate 5 after 7 days by resazurin microtiter assay; assay type: functional; details: isolate 5, 168 h
measureName: MIC

Please review the entries below; each comes with its answer.
N[C@@H]1CONC1=O ... 196 µM
NNC(=O)c1ccncc1 ... > 182 µM
NCC[C@H](O)C(=O)N[C@@H]1C[C@H](N)[C@@H](O[C@H]2O[C@H](CN)[C@@H](O)[C@H](O)[C@H]2O)[C@H](O)[C@H]1O[C@H]1O[C@H](CO)[C@@H](O)[C@H](N)[C@H]1O ... 1.7 µM
CCOC(=O)c1c(C)oc2nc(N3CCCC3)ccc12 ... 16.6 µM
CO[C@H]1/C=C/O[C@@]2(C)Oc3c(C)c(O)c4c(O)c(c(/C=N/N5CCN(C)CC5)c(O)c4c3C2=O)NC(=O)/C(C)=C\C=C\[C@H](C)[C@H](O)[C@@H](C)[C@@H](O)[C@@H](C)[C@H](OC(C)=O)[C@@H]1C ... > 30.4 µM

Each molecule below has a reported value. Please supply its MIC.
1. CCCCNc1ccc2c(C(=O)OCC)c(C(C)C)oc2n1
2. CC[C@@H](CO)NCCN[C@@H](CC)CO
3. COc1c(N2C[C@@H]3CCCN[C@@H]3C2)c(F)cc2c(=O)c(C(=O)O)cn(C3CC3)c12

1: > 82.2 µM; 2: > 122 µM; 3: 0.4 µM

###

Give MIC for every item shown.
tested on: Mycobacterium tuberculosis; assay: Antibacterial activity against drug-resistant Mycobacterium tuberculosis isolate 3 after 7 days by resazurin microtiter assay; format: functional; conditions: isolate 3, 168 h

Please review the entries below; each comes with its answer.
NNC(=O)c1ccncc1 ... > 182 µM
CO[C@H]1/C=C/O[C@@]2(C)Oc3c(C)c(O)c4c(O)c(c(/C=N/N5CCN(C)CC5)c(O)c4c3C2=O)NC(=O)/C(C)=C\C=C\[C@H](C)[C@H](O)[C@@H](C)[C@@H](O)[C@@H](C)[C@H](OC(C)=O)[C@@H]1C ... > 30.4 µM
CCOC(=O)c1c(C)oc2nc(N3CCCC3)ccc12 ... 9.3 µM
CCCCNc1ccc2c(C(=O)OCC)c(C(C)C)oc2n1 ... > 82.2 µM
COc1c(N2C[C@@H]3CCCN[C@@H]3C2)c(F)cc2c(=O)c(C(=O)O)cn(C3CC3)c12 ... 0.5 µM
CC[C@@H](CO)NCCN[C@@H](CC)CO ... > 122 µM
N[C@@H]1CONC1=O ... > 245 µM

Look up MIC with Mycobacterium tuberculosis for this molecule: NCC[C@H](O)C(=O)N[C@@H]1C[C@H](N)[C@@H](O[C@H]2O[C@H](CN)[C@@H](O)[C@H](O)[C@H]2O)[C@H](O)[C@H]1O[C@H]1O[C@H](CO)[C@@H](O)[C@H](N)[C@H]1O
0.4 µM

###

tested on: Mycobacterium tuberculosis; assay: Antibacterial activity against drug-resistant Mycobacterium tuberculosis isolate 1 after 7 days by resazurin microtiter assay; assay type: functional; details: isolate 1, 168 h
Give MIC for every item shown.

CC[C@@H](CO)NCCN[C@@H](CC)CO ... > 122 µM
CCCCNc1ccc2c(C(=O)OCC)c(C(C)C)oc2n1 ... > 82.2 µM
NCC[C@H](O)C(=O)N[C@@H]1C[C@H](N)[C@@H](O[C@H]2O[C@H](CN)[C@@H](O)[C@H](O)[C@H]2O)[C@H](O)[C@H]1O[C@H]1O[C@H](CO)[C@@H](O)[C@H](N)[C@H]1O ... 0.4 µM

Value lookup for MIC; key = NNC(=O)c1ccncc1
> 182 µM
